Exercise: for every item that follows, state its recorded TGI.
System: EKVX NSCLC
Test: NCI tumour cell line growth inhibition, 48 h
Answers are plain numbers, in µM.

As a guide, the following entries are already answered.
compound="CC12OOC(c3ccccc31)c1c2ccc2ccccc12 (stereo unspecified)" target_system="EKVX NSCLC" units_label=µM reported_measurement=18.7
compound=COc1c(O)c(OC)c2oc(-c3ccc(O)c(O)c3)c(OC)c(=O)c2c1O target_system="EKVX NSCLC" units_label=µM reported_measurement=94
compound="COC(=O)CCC(C)[C@H]1CCC2C3C(C[C@H](OC(C)=O)[C@@]21C)[C@@]1(C)CCC2(C[C@H]1C[C@H]3OC(C)=O)OOC1(CCCC1)OO2 (stereo partly specified)" target_system="EKVX NSCLC" units_label=µM reported_measurement=56.4
compound=N.N.NCCCCCN.O=C([O-])CCl.O=C([O-])CCl.O=C([O-])CCl.O=C([O-])CCl.[Pt+4].[Pt+4] target_system="EKVX NSCLC" units_label=µM reported_measurement=58.2

Now for the compound whose TGI we want.
In plain terms, CCN(CC)CCC(=O)c1ccc(Sc2ccc(F)cc2)cc1 has a documented TGI of 41.8

###

Answer each item with its documented log10 TGI.
Tested on: IGROV1 ovarian
Assay: NCI tumour cell line growth inhibition, 48 h
# values: log10(TGI), units µM

molecule=CCN(CC)Cc1cc(Nc2c3ccccc3nc3c2[nH]c2ccccc23)cc(CN(CC)CC)c1O reported_measurement=0.52
molecule="CCOC(=O)C1=C(C)N=c2s/c(=C\\c3ccccc3O)c(=O)n2C1c1ccc(OC)c2ccccc12 (centres undefined)" reported_measurement=1.88
molecule="CCCCCCCCCCCCCCCCCCNc1ccn(C2OC(COP(=O)(O)OCC3OC(n4cc(C)c(=O)[nH]c4=O)CC3F)C(O)C2O)c(=O)n1 (centres undefined)" reported_measurement=1.25
molecule=COc1cc2nc(Nc3cccc(Br)c3)nc(Nc3cccc(Br)c3)c2cc1OC reported_measurement=1.48
molecule=NC1=CC(=O)c2cccnc2C1=O reported_measurement=0.52

Now consider the entry below.
Looking up c1ccc([CH2][Sn]([CH2]c2ccccc2)([O]c2cccc3cccnc23)[O]c2cccc3cccnc23)cc1 , I found its log10 TGI recorded as 0.09

###

Assignment: determine reported TGI for the given molecules.
System: SK-MEL-2 melanoma
Experiment: NCI tumour cell line growth inhibition, 48 h

molecule=CCN(CC)C(=O)Cn1c(-c2ccccc2)cc2ccccc21 readout_type=TGI reported_measurement="> 100 µM"
molecule="C=C(C)C1CC/C(C)=C/CCC2(C)OC2CC/C(CO)=C\\C1O (centres undefined)" readout_type=TGI reported_measurement="> 100 µM"
molecule=C[n+]1c(/C=C/c2c[nH]c3ccccc23)ccc2ccccc21 readout_type=TGI reported_measurement="30.6 µM"
molecule=Cc1cc(Cl)cc2c(N=Nc3ccc(S(N)(=O)=O)cc3)c(O)[nH]c12 readout_type=TGI reported_measurement="> 25 µM"
molecule="COC(=O)C(Cc1nc2ccccc2[nH]c1=O)/C(=N\\NC(C)(C)C)C(=O)Nc1c(C)cc(Br)cc1C (centres undefined)" readout_type=TGI reported_measurement="> 100 µM"

Hi, could you look up TGI for each item in my list?
1. CC1(C)N=C(N)N=C(N)N1c1ccc(CCCCc2ccccc2)c(Cl)c1
2. CCOC(=O)[C@@H](C)C[C@H](Cc1ccccc1)NC(=O)c1nc([C@@H](C[C@H](C(C)C)N(C)C(=O)[C@@H](NC(=O)[C@H]2CCCCN2C)C(C)C)OC(C)=O)sc1CCOCc1ccccc1

Reply:
1. 12.4 µM
2. 2.39 µM

Quick one: give me TGI for each item below, same order please.
1. CCOC1=NC(C(F)(F)F)(C(F)(F)F)N=C(N2CCOCC2)O1
2. N#Cc1cnc(-n2[nH]c3c(c2=O)CCCC3)[nH]c1=O

Reply:
> 100 µM
> 100 µM
